// data source = patent US20260262643A1

System: corn
Test: Test A preemergence
Type: in vivo, Zea mays
Conditions: 500 g ai/ha, 0 to 100 scale (0 no effect, 100 complete control), 10 days
READOUT KIND: Plant response rating, Corn

Examples with answers:
INSERT INTO measurements (compound, readout_kind, result) VALUES
  ('Cc1ccc(-n2cnc(C3CCC3)n2)cc1C(=O)N1C[C@H](C)Oc2c(C)cccc21', 'Plant response rating, Corn', 20),
  ('CCc1ccc(-n2cnc(C3CC3)n2)cc1C(=O)N1C[C@H](C)Oc2c(Cl)cccc21', 'Plant response rating, Corn', 20);

Enquiry: Which Plant response rating, Corn is listed for Cc1ncn(-c2cccc(C(=O)N3C[C@H](C)Oc4c(C)cccc43)c2)n1 ?
Return: 50

Enquiry: # Plant response rating, Corn lookup, item COc1ccc(-n2cnc(C)n2)cc1C(=O)N1C[C@H](C)Oc2c(Cl)cccc21
Return: 60

Enquiry: Given the compound CC1CN(C(=O)c2cccc(-n3cncn3)c2)c2c(F)cccc2O1 (stereo not shown) , what is its reported Plant response rating, Corn?
Return: 30

Enquiry: So what's the measured Plant response rating, Corn for this one? CCCc1ncn(-c2cccc(C(=O)N3C[C@H](C)Oc4c(C)cccc43)c2)n1
Return: 50

Enquiry: I have this compound here, COc1ccc(-n2cnc(C(C)(C)C)n2)cc1C(=O)N1C[C@H](C)Oc2c(Cl)cccc21 , and I need its recorded Plant response rating, Corn.
Return: 20

====

Tested on: pigweed, palmer
Assay: Test A preemergence
Type: in vivo, Amaranthus palmeri
Conditions: 500 g ai/ha, visual injury after 10 days, 0 to 100 scale, 0 is no effect, 100 is complete control
Below: a set of entries, each annotated with reported Plant response rating, Pigweed, Palmer.
A bare number is all that is needed in reply.

These recorded examples may help you get a feel for the data.
INSERT INTO measurements (structure_string, target, readout_kind, result_number) VALUES
  ('CC(C)c1ncn(-c2ccc(OC(F)F)c(C(=O)N3C[C@H](C)Oc4c(Cl)cccc43)c2)n1', 'pigweed, palmer', 'Plant response rating, Pigweed, Palmer', 100),
  ('COCCc1ncn(-c2cccc(C(=O)N3C[C@H](C)Oc4c(C)cccc43)c2)n1', 'pigweed, palmer', 'Plant response rating, Pigweed, Palmer', 100),
  ('Cc1nc(C)n(-c2cccc(C(=O)N3C[C@H](C)Oc4c(Cl)cccc43)c2)n1', 'pigweed, palmer', 'Plant response rating, Pigweed, Palmer', 20),
  ('C=CCOc1ccc(-n2cnc(C(C)C)n2)cc1C(=O)N1C[C@H](C)Oc2c(Cl)cccc21', 'pigweed, palmer', 'Plant response rating, Pigweed, Palmer', 100),
  ('C[C@H]1CN(C(=O)c2cc(Br)cc(-n3cncn3)c2)c2cccc(Cl)c2O1', 'pigweed, palmer', 'Plant response rating, Pigweed, Palmer', 90);

# evaluate next
Enquiry: Give its Plant response rating, Pigweed, Palmer value. Item: CC(C)Cc1ncn(-c2cccc(C(=O)N3C[C@H](C)Oc4c(Cl)cccc43)c2)n1
Return: 100

====

System: corn
Test: Test A preemergence
Format: in vivo, Zea mays
Conditions: 500 g ai/ha, visual injury after 10 days, 0 to 100 scale, 0 is no effect, 100 is complete control
Source text: […]
// NB: equality with 30 counts as no; only Plant response rating, Corn strictly below is yes

INSERT INTO results (molecule, group) VALUES
  ('CC(C)c1ncn(-c2ccc(OC(F)F)c(C(=O)N3C[C@H](C)Oc4c(Cl)cccc43)c2)n1 [Compound 143]', 'no');

Enquiry: # strict comparison: is reported Plant response rating, Corn < 30? input = C[C@H]1CN(C(=O)c2cc(I)cc(-n3cncn3)c2)c2cccc(Cl)c2O1 [Compound 137]
Return: no

Enquiry: Quick check: Plant response rating, Corn of Cc1ccc(-n2cnc(CO)n2)cc1C(=O)N1C[C@H](C)Oc2c(Cl)cccc21 [Compound 148] under 30?
Return: no

Enquiry: Dear colleague, could you confirm whether Plant response rating, Corn of Cc1nc(C)n(-c2cccc(C(=O)N3C[C@H](C)Oc4c(Cl)cccc43)c2)n1 [Compound 142] falls below 30? Thanks.
Return: yes

Enquiry: For this molecule, is Plant response rating, Corn lower than 30? COCCc1ncn(-c2cccc(C(=O)N3C[C@H](C)Oc4c(C)cccc43)c2)n1 [Compound 113]
Return: no

Enquiry: In the record for CC(C)c1ncn(-c2cc(C(=O)N3C[C@H](C)Oc4c(Cl)cccc43)c3ccccc3c2)n1 [Compound 146] , is Plant response rating, Corn less than 30?
Return: yes

====

System: corn
Experiment: Test C postemergence
Assay type: in vivo, Zea mays
Conditions: Postemergence, 500 g ai/ha, 10 days, visual 0 to 100 scale (0 no effect, 100 complete control)
READOUT KIND: Plant response rating, Corn
Give your answer as a number; write no unit.

Known results for compounds:
INSERT INTO assay_data (compound, result_number) VALUES
  ('CCc1ccc(-n2cnc(C(C)(C)O)n2)cc1C(=O)N1C[C@H](C)Oc2c(C)cccc21 [Compound 279]', 90),
  ('Cc1ccc(-n2cnc(CC3CC3)n2)cc1C(=O)N1C[C@H](C)Oc2c(Cl)cccc21 [Compound 273]', 30),
  ('Cc1cccc2c1O[C@@H](C)CN2C(=O)c1cccc(-n2cnc(C(C)(C)O)n2)c1 [Compound 278]', 90);

Enquiry: Recorded Plant response rating, Corn for CC(C)c1ncn(-c2ccc(SC(F)(F)F)c(C(=O)N3C[C@H](C)Oc4c(Cl)cccc43)c2)n1 [Compound 249] , please?
Return: 10

====

Test system: ryegrass, Italian
Experiment: Test C preemergence
Assay type: in vivo, Lolium multiflorum
Conditions: Test C, preemergence, 125 g ai/ha; 0 to 100 scale (0 no effect, 100 complete control)
READOUT KIND: Ryegrass, Italian plant response rating
Format: numeric value only, no unit, no commentary.

INSERT INTO results (molecule, result_number) VALUES
  ('CCn1cnc(-c2cccc(C(=O)N3C[C@H](C)Oc4c(C)cccc43)c2)n1 [Compound 165]', 0),
  ('Cc1ccc(-n2cnc(C(C)C)n2)cc1C(=O)N1C[C@H](C)Oc2c(F)cccc21 [Compound 242]', 100),
  ('COc1ccc(-n2cncn2)cc1C(=O)N1C[C@H](C)Oc2ccccc21 [Compound 228]', 90);

Enquiry: Give the measured Ryegrass, Italian plant response rating of CCc1ccc(-n2cnc(C(C)(C)O)n2)cc1C(=O)N1C[C@H](C)Oc2c(C)cccc21 [Compound 279] .
Return: 90

====

System: soybean
Test: Test A postemergence
Format: in vivo, Glycine max
Details: 500 g ai/ha, postemergence, 10 days, visual injury, 0 to 100 scale (0 no effect, 100 complete control)
Listed below: Plant response rating, Soybean values for each entry.
Simply state the number, no unit and no words.

INSERT INTO assay_data (structure_string, readout_kind, result_number) VALUES
  ('CCc1ncn(-c2ccc(C)c(C(=O)N3C[C@H](C)Oc4c(Cl)cccc43)c2)n1', 'Plant response rating, Soybean', 100),
  ('Cc1ccc(-n2cnc(C3CCC3)n2)cc1C(=O)N1C[C@H](C)Oc2c(C)cccc21', 'Plant response rating, Soybean', 100),
  ('C[C@H]1CN(C(=O)c2cc(C3CC3)cc(-n3cncn3)c2)c2cccc(Cl)c2O1', 'Plant response rating, Soybean', 100),
  ('Cc1ccc(-n2cnc(CO)n2)cc1C(=O)N1C[C@H](C)Oc2c(Cl)cccc21', 'Plant response rating, Soybean', 100),
  ('CC(C)c1ncn(-c2ccc(C#N)c(C(=O)N3C[C@H](C)Oc4c(Cl)cccc43)c2)n1', 'Plant response rating, Soybean', 100),
  ('C[C@H]1CN(C(=O)c2cc(Cl)cc(-n3cncn3)c2)c2cccc(Cl)c2O1', 'Plant response rating, Soybean', 100),
  ('C[C@H]1CN(C(=O)c2cc(I)cc(-n3cncn3)c2)c2cccc(Cl)c2O1', 'Plant response rating, Soybean', 90),
  ('C[C@H]1CN(C(=O)c2cccc(-n3cnc(Br)n3)c2)c2cccc(Cl)c2O1', 'Plant response rating, Soybean', 100);

Enquiry: Sample Cc1ccc(-n2cnc(C(C)C)n2)cc1C(=O)N1C[C@H](C)Oc2c(C)cccc21 — what was its Plant response rating, Soybean?
Return: 100

Enquiry: Consider the molecule shown here: CCCCc1ncn(-c2cccc(C(=O)N3C[C@H](C)Oc4c(C)cccc43)c2)n1 What is its recorded Plant response rating, Soybean?
Return: 100

Enquiry: Quick one: Plant response rating, Soybean of Cc1cccc2c1O[C@@H](C)CN2C(=O)c1cccc(-n2cnn(C(C)C)c2=O)c1 ?
Return: 80

====

Test system: horseweed
Experiment: Test A postemergence
Assay type: in vivo, Erigeron canadensis
Details: Erigeron canadensis, post-emergence, 240 h; 500 g ai/ha, postemergence, 10 days, visual injury, 0 to 100 scale (0 no effect, 100 complete control); read-out: Plant response rating, Horseweed
Field: label. Allowed values: 1.0 (pest or weed control at 500 g/ha < 40%) or 0.0 (pest or weed control at 500 g/ha >= 40%).

INSERT INTO results (molecule, group) VALUES
  ('Cc1cccc2c1O[C@@H](C)CN2C(=O)c1cccc(-n2cnc(C3COC3)n2)c1 [Compound 109]', 1.0),
  ('CCc1ccc(-n2cnc(C(C)C)n2)cc1C(=O)N1C[C@H](C)Oc2c(Cl)cccc21 [Compound 94]', 0.0),
  ('Cc1ccc(-n2cnc(C(C)(C)C)n2)cc1C(=O)N1C[C@H](C)Oc2c(Cl)cccc21 [Compound 76]', 0.0),
  ('Cc1ccc(-n2cnc(C(C)C)n2)cc1C(=O)N1C[C@H](C)Oc2c(Cl)cccc21 [Compound 73]', 0.0);

Query molecule follows.
Enquiry: Is it true that pest or weed control at 500 g/ha reported for CC(C)c1ncn(-c2cc3c(c(C(=O)N4C[C@H](C)Oc5c(Cl)cccc54)c2)OCC3)n1 [Compound 147] is less than 40%?
Return: 1.0
